System: mAb 8i10
Type: binding, human
ASSAY READOUT: Binding activity to truncated M2 peptides, ELISA absorbance at 450 nm, 8i10
Enter a number only.

Example sequences with recorded Binding activity to truncated M2 peptides, ELISA absorbance at 450 nm, 8i10:
>>> experimental_value("SLLTEVETPIRNEWGCRCNDSSD [M2]")
0.11
>>> experimental_value("LLTEVETPIRNEWGCR [M16]")
0.09
>>> experimental_value("SLLTEVETPIRNEWG [NM15]")
0.12
>>> experimental_value("LTEVETPIRNEWGCR [M15]")
0.09

Next sequence, please.
IN: Provide the documented Binding activity to truncated M2 peptides, ELISA absorbance at 450 nm, 8i10 with mAb 8i10 as the system for ETPIRNEWGCRCNDSSD [CM17]
OUT: 0.11
